Biological target: Acetylcholinesterase (Homo sapiens) (UniProt P22303)
Sequence (P22303 whole entry, looked up): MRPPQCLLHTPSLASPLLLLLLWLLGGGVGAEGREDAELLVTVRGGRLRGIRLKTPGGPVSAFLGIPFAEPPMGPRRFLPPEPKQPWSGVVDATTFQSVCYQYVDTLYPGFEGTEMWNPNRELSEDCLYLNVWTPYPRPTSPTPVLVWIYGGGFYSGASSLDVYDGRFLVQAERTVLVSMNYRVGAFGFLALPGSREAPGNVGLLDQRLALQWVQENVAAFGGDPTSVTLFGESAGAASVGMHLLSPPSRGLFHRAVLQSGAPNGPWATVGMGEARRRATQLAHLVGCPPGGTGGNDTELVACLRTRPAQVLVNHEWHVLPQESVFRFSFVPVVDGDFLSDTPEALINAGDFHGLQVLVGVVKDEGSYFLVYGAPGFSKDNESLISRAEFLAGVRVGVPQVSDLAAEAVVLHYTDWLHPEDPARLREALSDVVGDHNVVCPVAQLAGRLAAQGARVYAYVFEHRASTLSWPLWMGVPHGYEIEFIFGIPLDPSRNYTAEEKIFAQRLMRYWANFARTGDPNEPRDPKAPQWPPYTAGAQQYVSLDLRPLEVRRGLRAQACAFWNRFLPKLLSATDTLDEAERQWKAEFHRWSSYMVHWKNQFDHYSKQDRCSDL
Test: Acetylcholinesterase (AChE) small molecule antagonists: enzyme-based qHTS assay with human liver microsomes (AID 1347399); also: nearly all actives have a fitted effect of over 60% in size
Conditions: qHTS inhibition; series mostly up to 115 µM
The source made the active and inactive calls. Calls follow the shape of the full dose curve.
test readout: outcome

smiles data	test readout	endpoint value
Cc1ccc(=O)n(-c2ccccc2)c1	outcome	inactive
CCc1cccc(C)c1	outcome	inactive
O=C(NN1CCCC1)NS(=O)(=O)c1ccc(Cl)cc1	outcome	inactive
CCCCCCCCCCCC[N+](C)(C)CCCCCCCCCCCC	outcome	inactive
C[C@H]1O[C@@H](n2cc(F)c(=O)[nH]c2=O)[C@H](O)[C@@H]1O	outcome	inactive
Nc1ccc2ccccc2c1S(=O)(=O)O	outcome	inactive

Q) Recorded outcome for `O=c1cccccc1O` , please?
A) inactive

Q) Recorded outcome for `CC(C)Nc1ccc(NC(C)C)c2c1C(=O)c1ccccc1C2=O` , please?
A) inactive

Q) Recorded outcome for `Brc1cc2ccccc2c2ccccc12` , please?
A) inactive

Q) Recorded outcome for `COC(C)(C)CC(C)=O` , please?
A) inactive

Q) Recorded outcome for `COc1cc(C(=O)OCCCN2CCCN(CCCOC(=O)c3cc(OC)c(OC)c(OC)c3)CC2)cc(OC)c1OC` , please?
A) inactive

Q) Recorded outcome for `CCCCCCCCSCc1cc(C)c(O)c(CSCCCCCCCC)c1` , please?
A) inactive

Q) Recorded outcome for `CCCCCCc1ccc(N)cc1` , please?
A) inactive

---

Assay: qHTS assay to identify small molecule antagonists of the thyroid receptor (TR) signaling pathway (AID 743065); also: nearly all actives have a fitted effect of over 55% in size
Details: GH3.TRE-Luc, T3-stimulated luciferase inhibition, 23.5 h; series mostly up to 70.3 µM
Inconclusive results are not listed. Active and inactive are the calls of the source. Calls come from the whole dose curve; as a rule, active = well fitted inhibition curve with a large enough effect in the repeat runs; inconclusive = weak or mixed curves; inactive = no such curve, though single readings can be large or run the other way.
Bench note: report the call from TRUE = active, FALSE = inactive

Q) Hi team, can someone confirm the assay call for `CN1CCN=C(c2ccccc2)c2cc(Cl)ccc21` ?
A) FALSE

Q) Hi team, can someone confirm the assay call for CN1C2CCC1CC(OC(c1ccccc1)c1ccc(Cl)cc1)C2 (centres undefined) ?
A) TRUE

Q) Hi team, can someone confirm the assay call for `COc1cc(C[C@H](C)N)c(OC)cc1Br` ?
A) TRUE

Q) Hi team, can someone confirm the assay call for `CCC(=O)O[C@](Cc1ccccc1)(c1ccccc1)[C@H](C)CN(C)C` ?
A) TRUE

---

Experiment: qHTS assay for small molecule agonists of the p53 signaling pathway - cell viability (AID 651633); also: nearly all actives have a fitted effect of over 30% in size
Settings: p53RE-bla HCT-116 viability, ATP luminescence, 16 h; series mostly up to 83.3 µM
Text: National Center for Advancing Translational Sciences [NCATS] NIH Chemical Genomics Center [NCGC] U.S. Environmental Protection Agency [EPA] National Institutes of Environmental Health Sciences [NIEHS] National Toxicology Program [NTP] U.S. Food and Drug Administration [FDA] p53, a tumor suppressor protein, is activated following cellular insult, including DNA damage and other cellular stresses. […] The activation of the reporter gene under culture conditions can be detected by fluorescence intensity. […]
Results filed as inconclusive are left out. The source made the active and inactive calls. The call rests on the fitted dose curve.
Bench note: report the call from active, inactive

Q) Hi team, can someone confirm the assay call for CN1C2CCC1CC(OC(c1ccccc1)c1ccc(Cl)cc1)C2 (centres undefined) ?
A) active

Q) Hi team, can someone confirm the assay call for `CN1CCN=C(c2ccccc2)c2cc(Cl)ccc21` ?
A) inactive

Q) Hi team, can someone confirm the assay call for CC(=O)O[C@H]1C[C@H](O[C@H]2[C@@H](O)C[C@H](O[C@H]3[C@@H](O)C[C@H](OC4CC[C@@]5(C)C(CC[C@@H]6[C@@H]5CC[C@]5(C)[C@@H](C7=CC(=O)OC7)[C@@H](O)C[C@]65O)C4)O[C@@H]3C)O[C@@H]2C)O[C@H](C)[C@H]1O[C@@H]1O[C@H](CO)[C@@H](O)[C@H](O)[C@H]1O (some centres undefined) ?
A) active

Q) Hi team, can someone confirm the assay call for `C#C[C@]1(OC(=O)CCCCCC)CC[C@H]2[C@@H]3CCC4=CC(=O)CC[C@@H]4[C@H]3CC[C@@]21C` ?
A) active

---

Molecular target: Acetylcholinesterase (Homo sapiens) (UniProt P22303)
Assay: Acetylcholinesterase (AChE) small molecule antagonists: enzyme-based qHTS assay (AID 1347397); also: nearly all actives have a fitted effect of over 55% in size
Settings: AChE enzyme activity inhibition; series mostly up to 115 µM
The source made the active and inactive calls. Calls follow the shape of the full dose curve.
Bench note: report the call from active, inactive

Q) Hi team, can someone confirm the assay call for `CNC(=O)C(c1ccccc1)c1ccccc1` ?
A) inactive

Q) Hi team, can someone confirm the assay call for `CC(C)C[C@@H]1[C@H](c2ccccc2)OC(=O)N1CCCN1CCCCCC1` ?
A) inactive

Q) Hi team, can someone confirm the assay call for `O=C(Nc1ccc(Cl)cc1)Nc1ccc(Cl)c(C(F)(F)F)c1` ?
A) inactive

Q) Hi team, can someone confirm the assay call for `CC(C)c1ccc2oc3nc(N)c(C(=O)O)cc3c(=O)c2c1` ?
A) inactive

Q) Hi team, can someone confirm the assay call for `CCC(=O)/C=C/c1ccc(OC)cc1` ?
A) inactive

Q) Hi team, can someone confirm the assay call for `O=C1C=CC(=O)N1c1ccc(Cc2ccc(N3C(=O)C=CC3=O)cc2)cc1` ?
A) inactive

Q) Hi team, can someone confirm the assay call for `CCC(CN)=C(c1ccccc1)c1ccccc1` ?
A) inactive

Q) Hi team, can someone confirm the assay call for `O=c1[nH]cnc2ccccc12` ?
A) inactive

Q) Hi team, can someone confirm the assay call for `CC(=O)c1c(C)cc(C(C)(C)C)cc1C` ?
A) inactive

Q) Hi team, can someone confirm the assay call for `Nc1c(Br)cc([N+](=O)[O-])cc1Br` ?
A) inactive

Q) Hi team, can someone confirm the assay call for `C=C(C)[C@@H]1CC[C@@H](C)C[C@@H]1O` ?
A) inactive

Q) Hi team, can someone confirm the assay call for `COc1cccc2c1C(=O)c1c(O)c3c(c(O)c1C2=O)C[C@@](O)(C(=O)CO)C[C@@H]3O[C@H]1C[C@H](N)[C@H](O[C@@H]2CCCCO2)[C@H](C)O1` ?
A) inactive

Q) Hi team, can someone confirm the assay call for `CN(C[C@@H](CC[N+]12CCC(C3CCCCC3)(CC1)CC2)c1ccc(Cl)c(Cl)c1)C(=O)c1cc(C(F)(F)F)cc(C(F)(F)F)c1` ?
A) active

Q) Hi team, can someone confirm the assay call for `CNCCO` ?
A) inactive

Q) Hi team, can someone confirm the assay call for `COCCCC/C(=N\OCCN)c1ccc(C(F)(F)F)cc1` ?
A) inactive

Q) Hi team, can someone confirm the assay call for `Nc1ccc(C(=O)NCC(=O)O)cc1` ?
A) inactive

Q) Hi team, can someone confirm the assay call for `NC(=S)N/N=C/c1cccnc1` ?
A) inactive

Q) Hi team, can someone confirm the assay call for `CCC(=O)OCCOc1ccccc1` ?
A) inactive

Q) Hi team, can someone confirm the assay call for `C=CCN(CC=C)CC=C` ?
A) inactive

Q) Hi team, can someone confirm the assay call for `C[C@@H]1CC[C@H]2C(C)(C)[C@H]3C[C@@]12CC[C@@]3(C)O` ?
A) inactive

Q) Hi team, can someone confirm the assay call for CC1CCCO1 (stereo not given) ?
A) inactive

Q) Hi team, can someone confirm the assay call for COC(=O)C1=C(C)NC(C)=C(C(=O)OCCN2CCN(C(c3ccccc3)c3ccccc3)CC2)C1c1cccc([N+](=O)[O-])c1 (stereo not given) ?
A) inactive

Q) Hi team, can someone confirm the assay call for CCCC1CCCC(=O)O1 (stereo not given) ?
A) inactive

Q) Hi team, can someone confirm the assay call for Oc1ccc(C2(c3ccc(O)cc3)CC3CC2C2CCCC32)cc1 (stereo not given) ?
A) active

Q) Hi team, can someone confirm the assay call for `CCCCCCCC[Si](OCC)(OCC)OCC` ?
A) inactive

---

Target: Acetylcholinesterase (Homo sapiens)
Experiment: Acetylcholinesterase (AChE) small molecule antagonists: enzyme-based qHTS assay (AID 1347397); also: nearly all actives have a fitted effect of over 55% in size
Details: AChE enzyme activity inhibition; series mostly up to 115 µM
Calls of active or inactive are those of the source. Calls come from the whole dose curve.
Bench note: report the call from active, inactive

Q) Hi team, can someone confirm the assay call for `CN1C(=O)c2ccc([N+](=O)[O-])cc2C1=O` ?
A) inactive

Q) Hi team, can someone confirm the assay call for `Cc1cccc(C)c1NC(=O)CN(CC(=O)O)CC(=O)O` ?
A) inactive

Q) Hi team, can someone confirm the assay call for O=C1C(=O)c2ccccc2C(O)=C1C1CCC(c2ccc(Cl)cc2)CC1 (stereo not drawn) ?
A) inactive

Q) Hi team, can someone confirm the assay call for CCC(CC)C(C)CCOC(C)=O (stereo not drawn) ?
A) inactive

Q) Hi team, can someone confirm the assay call for `Cn1cc(C(=O)[C@@H]2CCc3nc[nH]c3C2)c2ccccc21` ?
A) inactive

Q) Hi team, can someone confirm the assay call for `CCCCC/C=C\C=C\C(=O)OCC` ?
A) inactive

Q) Hi team, can someone confirm the assay call for `Cc1cccc(C)c1NC(=O)c1cc(S(N)(=O)=O)c(Cl)cc1O` ?
A) inactive

Q) Hi team, can someone confirm the assay call for `CC(=O)c1ccc2c(c1)Cc1ccccc1-2` ?
A) inactive

Q) Hi team, can someone confirm the assay call for `O=C(c1ccccc1)C1CCC1` ?
A) inactive

Q) Hi team, can someone confirm the assay call for `OC[C@@H](O)[C@@H](O)CO` ?
A) inactive

Q) Hi team, can someone confirm the assay call for `COc1ccc2c(c1OC)C(=O)O[C@@H]2[C@H]1c2c(cc3c(c2OC)OCO3)CCN1C` ?
A) inactive

Q) Hi team, can someone confirm the assay call for `CC(CO)CO` ?
A) inactive

Q) Hi team, can someone confirm the assay call for `CCCCCCCCCCCCCCCCCC(=O)OCCCCCCCCCCCCCC(C)C` ?
A) inactive

Q) Hi team, can someone confirm the assay call for O=C(Nc1ccc([N+](=O)[O-])cc1)Nc1ccc([N+](=O)[O-])cc1 (tested in a mixture with another compound) ?
A) inactive

Q) Hi team, can someone confirm the assay call for CC(=O)C1CCCCC1=O (stereo not drawn) ?
A) inactive

Q) Hi team, can someone confirm the assay call for `CCCCNCCCC` ?
A) inactive

Q) Hi team, can someone confirm the assay call for `O=[N+]([O-])c1ccc(O/N=C/c2cc(Br)c(O)c(Br)c2)c([N+](=O)[O-])c1` ?
A) inactive

Q) Hi team, can someone confirm the assay call for CC(=O)OC1CCCCC1C(C)(C)C (stereo not drawn) ?
A) inactive

Q) Hi team, can someone confirm the assay call for `O=C1C(O)=C(O)C(=O)C(O)=C1O` ?
A) inactive

Q) Hi team, can someone confirm the assay call for CC(C)(Cc1c[nH]c2ccccc12)NCC(O)COc1ccccc1C#N (stereo not drawn) ?
A) inactive

Q) Hi team, can someone confirm the assay call for `CCc1cccc(CC)c1NC(=O)CN(CC(=O)O)CC(=O)O` ?
A) inactive

Q) Hi team, can someone confirm the assay call for `CN(C)CCN(C)CCO` ?
A) inactive

Q) Hi team, can someone confirm the assay call for C=C(C)C1CCC(C)(O)CC1 (stereo not drawn) ?
A) inactive

Q) Hi team, can someone confirm the assay call for `CN(C)c1ccc(SC#N)cc1` ?
A) inactive

Q) Hi team, can someone confirm the assay call for `CCN(CC)CCCN(c1ccccc1)C1Cc2ccccc2C1` ?
A) inactive

Q) Hi team, can someone confirm the assay call for CCC(C)SSC(C)CC (stereo not drawn) ?
A) inactive

Q) Hi team, can someone confirm the assay call for `CCCCCCc1ccc(N)cc1` ?
A) inactive

Q) Hi team, can someone confirm the assay call for `Nc1ncnc2c1ncn2Cc1c(F)cccc1Cl` ?
A) inactive

Q) Hi team, can someone confirm the assay call for `Cc1cc(CC(=O)O)c(C)n1-c1ccc(Cl)cc1` ?
A) inactive

Q) Hi team, can someone confirm the assay call for `O=c1[nH]c(=O)n([C@H]2C[C@H](O)[C@@H](CO)O2)cc1I` ?
A) inactive

Q) Hi team, can someone confirm the assay call for `COc1ccc(C(=O)NCc2ccc(OCCN(C)C)cc2)cc1OC` ?
A) active

Q) Hi team, can someone confirm the assay call for `COc1ccc(-c2ccc3cc(C(=O)O)ccc3c2)cc1C12CC3CC(CC(C3)C1)C2` ?
A) inactive

Q) Hi team, can someone confirm the assay call for `C=CCCCCCCCCC(=O)OCCCC` ?
A) inactive

Q) Hi team, can someone confirm the assay call for `CCCCCCCCC(C)=O` ?
A) inactive

Q) Hi team, can someone confirm the assay call for CCCCCCCCCCCCCCC1CO1 (stereo not drawn) ?
A) inactive

Q) Hi team, can someone confirm the assay call for `Cc1cnc(C)c(C)n1` ?
A) inactive

Q) Hi team, can someone confirm the assay call for `CC1=C(CC=O)C(C)(C)CCC1` ?
A) inactive

Q) Hi team, can someone confirm the assay call for `NC(N)=N/N=C/c1c(Cl)cccc1Cl` ?
A) inactive

Q) Hi team, can someone confirm the assay call for CCC(C)N(C)C(=O)c1cc2ccccc2c(-c2ccccc2Cl)n1 (stereo not drawn) ?
A) inactive

Q) Hi team, can someone confirm the assay call for `C=C1CC[C@H]2O[C@]2(C)CC[C@@H]2[C@@H]1CC2(C)C` ?
A) inactive

Q) Hi team, can someone confirm the assay call for Nc1ccc(C(=O)OCC(O)CO)cc1 (stereo not drawn) ?
A) inactive

Q) Hi team, can someone confirm the assay call for `Nc1nc(N)c(-c2ccccc2)s1` ?
A) inactive

Q) Hi team, can someone confirm the assay call for `CCCCCCCCCCc1ccccc1` ?
A) inactive

Q) Hi team, can someone confirm the assay call for `CC1=C(/C=C/C(C)=C/C=C/C(C)=C\C(=O)O)C(C)(C)CCC1` ?
A) inactive

Q) Hi team, can someone confirm the assay call for C/C(=C\C(C)CC(C)CC(C)C)C1CC(=O)OC1=O (stereo not drawn) ?
A) inactive

Q) Hi team, can someone confirm the assay call for `CCCCCCCC/C=C/CCCOC(C)=O` ?
A) inactive

Q) Hi team, can someone confirm the assay call for `Cc1cc(C)cc([N+](=O)[O-])c1` ?
A) inactive

Q) Hi team, can someone confirm the assay call for FC1(F)C(F)(F)C(F)(F)C2(F)C(F)(C1(F)F)C(F)(F)C(F)(F)C1(F)C(F)(F)C(F)(F)C(F)(F)C(F)(F)C12F (stereo not drawn) ?
A) inactive

Q) Hi team, can someone confirm the assay call for `COc1cc(OC)nc(NC(=O)NS(=O)(=O)Nc2ccccc2C(=O)N(C)C)n1` ?
A) inactive

Q) Hi team, can someone confirm the assay call for `CC(=O)Nc1ncc([N+](=O)[O-])s1` ?
A) inactive

Q) Hi team, can someone confirm the assay call for CC(C)(C)C1CCC(CC2=C(O)c3ccccc3C(=O)C2=O)CC1 (stereo not drawn) ?
A) inactive

Q) Hi team, can someone confirm the assay call for `CCCCCCCCCCCCN(CCCCCCCCCCCC)CCCCCCCCCCCC` ?
A) inactive

Q) Hi team, can someone confirm the assay call for Cc1ncc([N+](=O)[O-])n1CC(C)O (stereo not drawn) ?
A) inactive
